The origin of these recorded values is patent US20250034169A1.

molecular target: KRAS G12D-GTP & SOS1 (Homo sapiens (Human), UniProt P01116, G12D); test: KRAS G12D/SOS1 binding experiment (HTRF); details: competitive binding
Sequence (P01116-2 other isoform, or with tags, fused parts or gaps G12D): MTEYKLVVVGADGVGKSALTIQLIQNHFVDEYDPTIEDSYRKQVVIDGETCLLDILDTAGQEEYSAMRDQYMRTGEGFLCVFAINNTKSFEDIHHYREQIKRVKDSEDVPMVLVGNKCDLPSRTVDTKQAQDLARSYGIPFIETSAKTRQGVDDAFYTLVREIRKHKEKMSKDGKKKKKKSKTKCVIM
readout_name: IC50

compound | IC50
C#Cc1c(F)ccc2cc(O)cc(-c3nc(C(=O)OCC)c4c(N5CC6CCC(C5)N6)nc(OC[C@@]56CCCN5C[C@H](F)C6)nc4c3F)c12 [Compound 13] | 11.3 nM
C#Cc1c(F)ccc2cc(O)cc(-c3nc(C#CCC(C)C)c4c(N5CC6CCC(C5)N6)nc(OC[C@@]56CCCN5C[C@H](F)C6)nc4c3F)c12 [Compound 29] | 15.9 nM

Inquiry: Please report the measured IC50 for C#Cc1c(F)ccc2cc(O)cc(-c3nc(C#CCOC)c4c(N5CC6CCC(C5)N6)nc(OC[C@@]56CCCN5C[C@H](F)C6)nc4c3F)c12 [Compound 25] tested on KRAS G12D-GTP & SOS1 (Homo sapiens (Human), UniProt P01116, G12D).
Reply text: 16.8 nM

Inquiry: Provide IC50, recorded with KRAS G12D-GTP & SOS1 (Homo sapiens (Human), UniProt P01116, G12D), of C#Cc1c(F)ccc2cc(O)cc(-c3nc(C#C)c4c(N5CC6CCC(C5)N6)nc(OCC5(CN6CCOCC6)CC5)nc4c3F)c12 [Compound 53]
Reply text: 14.6 nM

Inquiry: Provide IC50, recorded with KRAS G12D-GTP & SOS1 (Homo sapiens (Human), UniProt P01116, G12D), of C#Cc1c(F)ccc2cc(O)cc(-c3nc(C#C)c4c(N5CC6CCC(C5)N6)nc(OC[C@H]5CCCN5C)nc4c3F)c12 [Compound 50]
Reply text: 36.2 nM

----------
experiment: in vivo; parameters: species or system BALB/c mice; conditions: BALB/c, mouse, mice, intravenous, 2 mg/kg, read-out: Vss
readout_name: Vd (L/kg)
Respond numerically; units are L/kg and should not be typed.

Inquiry: Let me know recorded Vd for "C#Cc1c(F)ccc2cc(O)cc(-c3nc(C#C)c4c(N5CC6CCC(C5)N6)nc(OC[C@@]56CCCN5C[C@H](F)C6)nc4c3F)c12" , thanks.
Reply text: 0.69

----------
assay: in vivo; set-up: species or system BALB/c mice; conditions: BALB/c, mouse, mice, intravenous, 2 mg/kg, read-out: Cmax
readout_name: Cmax (ng/mL)
Output spec: scalar in ng/mL, unitless text.

Inquiry: Give the value of Cmax reported for the following: "C#Cc1c(F)ccc2cc(O)cc(-c3nc(C#C)c4c(N5CC6CCC(C5)N6)nc(OC[C@@]56CCCN5C[C@H](F)C6)nc4c3F)c12"
Reply text: 3550

----------
test: in vivo; design: species or system BALB/c mice; details: BALB/c, mouse, iv, 2 mg/kg
readout_name: clearance (mL/min/kg)
Output spec: scalar in mL/min/kg, unitless text.

Inquiry: Quote clearance reported for "C#Cc1nc(-c2cc(O)cc3cccc(Cl)c23)c(F)c2nc(OC[C@@]34CCCN3C[C@H](F)C4)nc(N3CC4CCC(C3)N4)c12" please.
Reply text: 10

----------
assay: in vivo; parameters: species or system BALB/c mice; settings: BALB/c, mouse, mice, intravenous, 2 mg/kg, read-out: T1/2 (converted)
readout_name: half-life (min)
Please reply with the bare figure in min and do not write the unit itself.

Inquiry: Assign half-life to the following record: C#Cc1c(F)ccc2cc(O)cc(-c3nc(C#C)c4c(N5CC6CCC(C5)N6)nc(OC[C@@]56CCCN5C[C@H](F)C6)nc4c3F)c12 [Compound 23]
Reply text: 50.4
